Hello, the source for this data is patent US12473298B2, in case you need it.

AUC reference
Test: Pharmacokinetic experiment in rats
Type: in vivo, SD rats
Conditions: male, SD, rat, plasma; rats, Oral-Dose 20 mg/kg; read-out: Area Curve (AUC, ng/mL · h)
Description: A certain amount of compound was weighted and dissolved in 0.1% Tween under vortex and ultrasound, and 0.5% carboxymethyl cellulose sodium (CMC-NA) solution was added to form a uniform solution.
Note: unit µg·h/mL is implicit; provide only the numeric part.

Example entries and their recorded answers appear below.
CCN(c1cc(-c2ccc3c(c2)NC(=O)C32CCNCC2)cc(C(=O)NCc2c(OC)cc(C)[nH]c2=O)c1C)C1CCNCC1 [Example 116]: 1.57
CCN(c1cc(-c2ccc3c(c2)NC(=O)C32CCOCC2)cc(C(=O)NCc2c(OC)cc(C)[nH]c2=O)c1C)C1CCOCC1OC (centres unmarked) [Example 112]: 1.19
CCN(c1cc(-c2ccc3c(c2)C2(CCOCC2)C(=O)N3C)cc(C(=O)NCc2c(OC)cc(C)[nH]c2=O)c1C)C1CCN(CC(F)(F)F)CC1 [Example 109]: 1.61
CCN(c1cc(-c2ccc3c(c2)NC(=O)C32CCOCC2)cc(C(=O)NCc2c(C)cc(C)[nH]c2=O)c1C)C1CCS(=O)(=O)CC1 [Example 96]: 1.54

Consider the additional molecule presented here.
Prompt: Answer with the recorded AUC of CCN(c1cc(-c2ccc3c(c2)N(C(C)C(C)C)CC32CCOCC2)c(Cl)c(C(=O)NCc2c(C)cc(C)[nH]c2=O)c1C)C1CCOCC1 (centres unmarked) [Example 55] only.
Response: 1.27

---

Readings of bioavailability for the listed molecules
assay: Pharmacokinetic experiment in rats; format: in vivo, SD rats; settings: male, SD, rat, plasma; rats, oral 20 mg/kg vs intravenous 4 mg/kg; read-out: Bioavailability (P %)
Structures can show the parent of a compound that is named as a salt.
Just the number please, in %, no unit attached.

# example entries with known answers
CCN(c1cc(-c2ccc3c(c2)N(C)C(=O)C32CCN(C(C)C)CC2)c(F)c(C(=O)NCc2c(C)cc(C)[nH]c2=O)c1C)C1CCOCC1: 26.8
CCN(c1cc(-c2ccc3c(c2)C2(CC3)CC(C)N(CC)C(C)C2)cc(C(=O)NCc2c(OC)cc(C)[nH]c2=O)c1C)C1CCOCC1 (stereo not shown) [Example 50, formate]: 28.2

Prompt: Identify measured bioavailability associated with CCN(c1cc(-c2ccc3c(c2)CCC32CCOCC2)cc(C(=O)NCc2c(OC)cc(C)[nH]c2=O)c1C)C1CCOC(C)(C)C1 (stereo not shown)
Response: 31.3

Prompt: Let me know recorded bioavailability for CCN(c1cc(-c2ccc3c(c2)NC(=O)C32CCOCC2)cc(C(=O)NCc2c(C)cc(C)[nH]c2=O)c1C)C1CCS(=O)(=O)CC1 , thanks.
Response: 31.1

---

Measured half-life values are reported for all entries that follow.
test: Pharmacokinetic experiment in rats; assay type: in vivo, SD rats; details: male, SD, rat, plasma; rats, Intravenous-Dose 4 mg/kg; read-out: Half life T1/2, h) (converted)
Give the number; h is assumed, so skip it.

CCN1C(=O)C2(CCOCC2)c2ccc(-c3cc(C(=O)NCc4c(C)cc(C)[nH]c4=O)c(C)c(N(CC)C4CCOCC4)c3)cc21 [Example 18]: 1.35

Prompt: Supply recorded half-life for CCN(c1cc(-c2ccc3c(c2)NC(=O)C32CCOCC2)cc(C(=O)NCc2c(C)cc(C)[nH]c2=O)c1C)C1CCS(=O)(=O)CC1 [Example 96] here.
Response: 1.64

Prompt: Provide measured half-life value, entry: CCN(c1cc(-c2cc3c(cc2F)CCC32CCOCC2)cc(C(=O)NCc2c(OC)cc(C)[nH]c2=O)c1C)C1CCOCC1 [Example 16]
Response: 1.42

Prompt: Look up and state reported half-life for CCN(c1cc(-c2ccc3c(c2)N(CCC(F)(F)F)C(=O)C32CCOCC2)cc(C(=O)NCc2c(C)cc(C)[nH]c2=O)c1C)C1CCOCC1 [Example 14]
Response: 1.69

---

test: Pharmacokinetic experiment in rats; type: in vivo, SD rats; details: male, SD, rat, plasma; rats, oral 20 mg/kg vs intravenous 4 mg/kg; read-out: Bioavailability (P %)
Below, each of the compounds is paired with its reported bioavailability value.
Enter your answer as a number in %; do not include the unit.

CCN(c1cc(-c2ccc3c(c2)N(C(C)C)CC32CCOCC2)c(Cl)c(C(=O)NCc2c(OC)cc(C)[nH]c2=O)c1C)C1CCOCC1: 26.2
CCN(c1cc(-c2ccc3c(c2)N(CCOC)C(=O)C32CCOCC2)cc(C(=O)NCc2c(C)cc(C)[nH]c2=O)c1C)C1CCOCC1: 27.7
CCN(c1cc(-c2ccc3c(c2)N(C)C(=O)C32CCNCC2)cc(C(=O)NCc2c(OC)cc(C)[nH]c2=O)c1C)C1CCOCC1: 36.3

Prompt: Assign bioavailability to the following record: CCN(c1cc(-c2cc3c(cc2F)C2(CCOCC2)C(=O)N3C)cc(C(=O)NCc2c(C)cc(C)[nH]c2=O)c1C)C1CCOCC1
Response: 33.7

Prompt: Give reported bioavailability value for CCN(c1cc(-c2ccc3c(c2)N(CC(F)(F)C(F)(F)F)C(=O)C32CCOCC2)cc(C(=O)NCc2c(C)cc(C)[nH]c2=O)c1C)C1CCOCC1
Response: 24.4

Prompt: Report bioavailability, nothing else, for this compound: CCN(c1cc(-c2ccc3c(c2)NC(=O)C32CCOCC2)cc(C(=O)NCc2c(OC)cc(C)[nH]c2=O)c1C)C1CCOCC1
Response: 33.1

---

experiment: Pharmacokinetic experiment in rats; type: in vivo, SD rats; settings: male, SD, rat, plasma; rats, Oral-Dose 20 mg/kg; read-out: Area Curve (AUC, ng/mL · h)
readout_type: AUC (ng·h/mL)
Give your result in ng·h/mL as a bare value.

Example molecules with recorded AUC:
CCN(c1cc(-c2ccc3c(c2)N(CCOC)C(=O)C32CCOCC2)cc(C(=O)NCc2c(C)cc(C)[nH]c2=O)c1C)C1CCOCC1: 1310
CCN(c1cc(-c2ccc3c(c2)N(C(C)C)CC32CCOCC2)c(Cl)c(C(=O)NCc2c(OC)cc(C)[nH]c2=O)c1C)C1CCOCC1: 1300

Okay, now this molecule:
Prompt: Specify reported AUC for the molecule shown: CCN(c1cc(-c2cc3c(cc2F)C2(CCOCC2)C(=O)N3C)cc(C(=O)NCc2c(C)cc(C)[nH]c2=O)c1C)C1CCOCC1
Response: 1510

---

target: Mutant type EZH2(Y641F) (Homo sapiens (Human), UniProt Q15910, Y641F); experiment: AlphaLISA, mutant type PRC2 complex EZH2(Y641F); format: biochemical; conditions: read-out: Mutant type EZH2(Y641F) IC50 Nanomoles per Liter
Sequence (Q15910 whole entry Y641F): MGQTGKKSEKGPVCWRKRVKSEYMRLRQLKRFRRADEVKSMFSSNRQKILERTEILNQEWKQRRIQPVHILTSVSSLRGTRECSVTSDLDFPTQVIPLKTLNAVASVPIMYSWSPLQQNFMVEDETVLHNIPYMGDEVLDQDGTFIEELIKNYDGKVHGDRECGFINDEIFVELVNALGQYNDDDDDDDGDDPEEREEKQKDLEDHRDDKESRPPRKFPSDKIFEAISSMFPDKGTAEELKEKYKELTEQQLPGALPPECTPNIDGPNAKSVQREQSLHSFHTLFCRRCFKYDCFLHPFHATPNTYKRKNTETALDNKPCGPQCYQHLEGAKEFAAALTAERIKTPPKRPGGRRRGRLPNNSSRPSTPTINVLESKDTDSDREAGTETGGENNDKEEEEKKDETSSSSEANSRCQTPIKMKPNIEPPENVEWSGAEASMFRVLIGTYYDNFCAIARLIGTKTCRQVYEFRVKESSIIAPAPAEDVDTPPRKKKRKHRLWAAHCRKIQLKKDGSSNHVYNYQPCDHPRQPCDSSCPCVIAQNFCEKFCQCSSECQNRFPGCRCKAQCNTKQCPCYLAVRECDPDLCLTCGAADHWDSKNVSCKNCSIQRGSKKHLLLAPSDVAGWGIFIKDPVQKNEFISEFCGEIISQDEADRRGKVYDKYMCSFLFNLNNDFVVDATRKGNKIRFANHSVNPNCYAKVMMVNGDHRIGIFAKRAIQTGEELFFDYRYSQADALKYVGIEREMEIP
Sequence (O75530 whole entry partner): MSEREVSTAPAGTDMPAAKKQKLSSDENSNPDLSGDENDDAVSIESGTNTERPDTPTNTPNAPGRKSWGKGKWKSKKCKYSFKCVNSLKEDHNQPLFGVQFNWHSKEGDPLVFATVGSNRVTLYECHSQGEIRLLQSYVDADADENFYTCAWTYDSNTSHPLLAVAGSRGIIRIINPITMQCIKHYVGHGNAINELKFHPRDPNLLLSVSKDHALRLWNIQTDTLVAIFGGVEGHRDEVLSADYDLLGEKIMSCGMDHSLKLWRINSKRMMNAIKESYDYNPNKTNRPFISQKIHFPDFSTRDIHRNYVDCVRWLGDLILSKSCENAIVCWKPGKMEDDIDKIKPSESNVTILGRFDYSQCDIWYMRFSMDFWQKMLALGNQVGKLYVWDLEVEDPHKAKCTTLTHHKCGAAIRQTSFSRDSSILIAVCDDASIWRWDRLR
Sequence (Q15022 whole entry partner): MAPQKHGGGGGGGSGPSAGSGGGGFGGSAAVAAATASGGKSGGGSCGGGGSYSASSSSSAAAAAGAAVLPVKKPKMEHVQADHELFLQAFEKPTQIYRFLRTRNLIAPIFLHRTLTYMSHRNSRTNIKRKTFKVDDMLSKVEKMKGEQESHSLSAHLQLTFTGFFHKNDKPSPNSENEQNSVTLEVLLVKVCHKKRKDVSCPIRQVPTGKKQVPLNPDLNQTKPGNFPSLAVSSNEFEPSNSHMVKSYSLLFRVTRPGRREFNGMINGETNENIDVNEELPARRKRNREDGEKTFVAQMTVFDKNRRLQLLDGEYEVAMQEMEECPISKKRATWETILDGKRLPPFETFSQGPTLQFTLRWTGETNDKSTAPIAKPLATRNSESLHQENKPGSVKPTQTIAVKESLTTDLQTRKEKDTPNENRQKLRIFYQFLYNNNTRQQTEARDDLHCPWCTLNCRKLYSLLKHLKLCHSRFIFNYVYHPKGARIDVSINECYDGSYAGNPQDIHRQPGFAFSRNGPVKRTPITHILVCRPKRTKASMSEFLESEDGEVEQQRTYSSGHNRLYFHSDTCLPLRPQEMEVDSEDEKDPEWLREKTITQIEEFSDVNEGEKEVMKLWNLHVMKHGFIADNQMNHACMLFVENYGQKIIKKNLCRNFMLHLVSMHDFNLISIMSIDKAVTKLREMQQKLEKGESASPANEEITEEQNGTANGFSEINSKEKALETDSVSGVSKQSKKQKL
Sequence (Q09028 whole entry partner): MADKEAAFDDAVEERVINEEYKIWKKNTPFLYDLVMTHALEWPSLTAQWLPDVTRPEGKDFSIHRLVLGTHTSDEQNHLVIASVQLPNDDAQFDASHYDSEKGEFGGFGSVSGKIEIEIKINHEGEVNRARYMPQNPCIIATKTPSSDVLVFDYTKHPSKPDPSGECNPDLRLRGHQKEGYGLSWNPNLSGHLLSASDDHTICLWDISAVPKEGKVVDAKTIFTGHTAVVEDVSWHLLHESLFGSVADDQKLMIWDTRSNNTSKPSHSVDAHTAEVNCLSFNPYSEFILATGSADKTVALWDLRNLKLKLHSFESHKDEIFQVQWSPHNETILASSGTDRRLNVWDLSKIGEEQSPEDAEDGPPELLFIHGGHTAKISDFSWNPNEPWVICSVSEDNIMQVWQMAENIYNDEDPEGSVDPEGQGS
Sequence (Q6ZN18 whole entry partner): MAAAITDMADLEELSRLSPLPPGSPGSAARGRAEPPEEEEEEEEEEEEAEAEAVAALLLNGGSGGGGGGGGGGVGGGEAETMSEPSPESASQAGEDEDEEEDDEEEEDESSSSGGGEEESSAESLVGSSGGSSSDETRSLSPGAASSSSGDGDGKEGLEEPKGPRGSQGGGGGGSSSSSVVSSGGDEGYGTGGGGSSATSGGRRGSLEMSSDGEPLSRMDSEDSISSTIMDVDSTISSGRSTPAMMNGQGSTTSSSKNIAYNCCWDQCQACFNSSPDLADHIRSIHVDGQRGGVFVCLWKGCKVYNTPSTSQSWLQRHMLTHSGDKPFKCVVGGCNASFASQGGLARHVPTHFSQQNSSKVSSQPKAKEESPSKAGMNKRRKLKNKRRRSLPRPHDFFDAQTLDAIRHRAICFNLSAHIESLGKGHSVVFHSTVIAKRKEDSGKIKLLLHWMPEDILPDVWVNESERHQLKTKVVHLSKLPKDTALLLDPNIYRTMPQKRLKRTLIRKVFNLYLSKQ
readout_type: pIC50
# reply with the number alone; pIC50 is -log10 of concentration in mol/L

# count of solved cases: 5
CCN(c1cc(-c2ccc3c(c2)CCC32CCOCC2)cc(C(=O)NCc2c(OC)cc(C)[nH]c2=O)c1C)C1CCOCC1: 9.27
CCN(c1cc(-c2ccc3c(c2)C2(CCOCC2)C(=O)N3C)cc(C(=O)NCc2c(OC)cc(C)[nH]c2=O)c1C)C1CCN(CC(F)(F)F)CC1 [Example 109]: 9.14
CCN(c1cc(-c2ccc3c(c2)N(C(C)C(C)C)CC32CCOCC2)c(Cl)c(C(=O)NCc2c(C)cc(C)[nH]c2=O)c1C)C1CCOCC1 (stereo not drawn): 9.24
CCN(c1cc(-c2ccc3c(c2)C2(CCOCC2)C(=O)N3C)cc(C(=O)NCc2c(OC)cc(C)[nH]c2=O)c1C)C1CCN(CC(F)(F)F)CC1 [Example 123]: 9.04
CCN1CCC2(CC1)C(=O)Nc1cc(-c3cc(C(=O)NCc4c(C)cc(C)[nH]c4=O)c(C)c(N(CC)C4CCOCC4)c3)ccc12: 9.09

For the next question, use this compound.
Prompt: Print Mutant type EZH2(Y641F) (Homo sapiens (Human), UniProt Q15910, Y641F) pIC50 for CCN(c1cc(-c2ccc3c(c2)NC(=O)C32CCC(=O)CC2)cc(C(=O)NCc2c(C)cc(C)[nH]c2=O)c1C)C1CCOCC1 .
Response: 9.17

---

experiment: Pharmacokinetic experiment in rats; format: in vivo, SD rats; details: male, SD, rat, plasma; rats, Intravenous-Dose 4 mg/kg; read-out: Area Curve (AUC, ng/mL · h)
# AUC listing for each entry below
Just the number in ng·h/mL, nothing appended.

Prompt: Given the molecule CCN(c1cc(-c2ccc3c(c2)NCC32CCOCC2)cc(C(=O)NCc2c(OC)cc(C)[nH]c2=O)c1C)C1CCNCC1 , write its reported AUC.
Response: 912

Prompt: Using known records, supply AUC for CCN(c1cc(-c2ccc3c(c2)C2(CCOCC2)C(=O)N3C)cc(C(=O)NCc2c(OC)cc(C)[nH]c2=O)c1C)C1CCN(CC(F)(F)F)CC1
Response: 966

Prompt: Look up and state reported AUC for CCN(c1cc(-c2cc3c(cc2F)C2(CCOCC2)C(=O)N3C)cc(C(=O)NCc2c(C)cc(C)[nH]c2=O)c1C)C1CCOCC1
Response: 896

Prompt: Give AUC for CCN(c1cc(-c2ccc3c(c2)NC(=O)C32CCOCC2)cc(C(=O)NCc2c(OC)cc(C)[nH]c2=O)c1C)C1CCOCC1
Response: 948
